Data credit: ChEMBL document CHEMBL2331415

- Test system: A549
- EXPERIMENT_DESCRIPTION: Cytotoxicity against human A549 cells at 50 uM after 48 hrs by sulforhodamine B assay
- Assay type: functional
ENDPOINT_LABEL: Activity (%)
Give your result in % as a bare value.

Examples with answers:
CC1=C[C@H](O)[C@@H]2O[C@@H]2C1=O = 98
C[C@@H]1C[C@H]2CC(=O)C[C@H](C2)O1 = 71
C[C@H]1C[C@H]2CC[C@H](O)C(O)=C2C(=O)O1 = 35

Read the next record carefully.
[Q] I am curious: what Activity value has been reported for C[C@H]1C[C@H]2CCCC(O)=C2C(=O)O1 ?
[A] 15
